Test system: LOX IMVI melanoma
Test: NCI tumour cell line growth inhibition, 48 h
Give TGI for every item shown.

## Input // lookup TGI | system=LOX IMVI melanoma | key= CN(C)C(=O)c1cnc2oc3ccc(O)cc3c2c1-c1ccccc1
## Output > 25 µM

## Input // lookup TGI | system=LOX IMVI melanoma | key= COc1cccc(-c2cc3c4c(nc5ccccc53)C(=O)c3cccnc3-c4n2)c1
## Output > 100 µM

## Input // lookup TGI | system=LOX IMVI melanoma | key= BrCC[N+]12CC[N+](CCBr)(CC1)C2
## Output > 100 µM

## Input // lookup TGI | system=LOX IMVI melanoma | key= COc1cc(/C=C/C(=O)c2ccc(F)cc2)ccc1OCCCN1CCN(CC(=O)Nc2ccc(Cl)cc2C(=O)c2ccccc2Cl)CC1
## Output 14.6 µM

## Input // lookup TGI | system=LOX IMVI melanoma | key= O=C(N/N=C/c1ccccc1)c1cccc2nc3ccccc3nc12
## Output > 100 µM

---

Test system: LOX IMVI melanoma
Assay: NCI tumour cell line growth inhibition, 48 h; in the data active = GI50 below about 0.43 µM; inactive = the rest
Form entry, call: pick from Yes = active, No = inactive

## Input Call for entry C[C@]12CC[C@@H]3c4ccc(O)cc4CC[C@H]3[C@@H]1Cc1cnc(N)nc12 :
## Output No

## Input Call for entry Cc1[nH]c(=O)nc(Nc2ccc(Cl)cc2)c1C(=O)N1CCN(CCO)CC1 :
## Output No

## Input Call for entry COC(=O)Nc1nc2ccc(Oc3cccc(NC(=O)Nc4cc(C(F)(F)F)ccc4F)c3)cc2[nH]1 :
## Output No

## Input Call for entry O=C1C(SCCO)=C(SCCO)C(=O)N1c1ccc(-c2ccccc2)cc1 :
## Output No

## Input Call for entry NS(=O)(=O)c1ccc(/C=C/c2ccc(O)cc2)cc1 :
## Output No

## Input Call for entry COc1cc([N+](=O)[O-])c(OC)cc1-c1nc2sccn2c1/C=N/N=C(N)N :
## Output No

## Input Call for entry CC(=O)[CH-]C(=O)c1ccccc1.CC(=O)[CH-]C(=O)c1ccccc1.CC(=O)[CH-]C(=O)c1ccccc1.[In+3] :
## Output No

## Input Call for entry Cc1cnc(CNC(=O)c2c(=O)c3ccc(N4CCCN(C)CC4)nc3n3c2sc2ccccc23)cn1 :
## Output Yes

## Input Call for entry COc1ccc(C(=O)/C=C/c2cccc(Nc3ccnc4cc(Cl)ccc34)c2)cc1 :
## Output No

## Input Call for entry CC(C)(C)c1[nH]nc2c1C(c1cc3ccccc3[nH]c1=O)Nc1cc(C(=O)OCc3ccccc3)ccc1N2 (centres undefined) :
## Output No

## Input Call for entry CC(C)(c1ccccc1)c1ccc(Oc2ccc(C#N)c(C#N)c2)cc1 :
## Output No

## Input Call for entry O=S(=O)(c1cccc2c(I)cccc12)N1CCCNCC1 :
## Output No

## Input Call for entry CCN1C(=O)N(CC)C2C1NN=c1s/c(=C\c3ccccn3)c(=O)n12 (centres undefined) :
## Output No

## Input Call for entry CN(C)CC1CCC2=C(C1=O)C(c1ccc(Cl)c(Cl)c1)C1=C(CCC(CN(C)C)C1=O)O2 (centres undefined) :
## Output No

## Input Call for entry CC(C)CCNCC(O)Cn1c2ccccc2c2ccccc21 (centres undefined) :
## Output No

## Input Call for entry COC(=O)c1cc2ccccc2c2c3c(ccc12)OCO3 :
## Output No

## Input Call for entry CCSc1nc(SCC)c2c(-c3ccc(OC)c(OC)c3)c(C#N)c(SCC)nc2n1 :
## Output No

## Input Call for entry O=c1c(O)c(-c2ccc(O)c(O)c2)oc2cc(O)cc(O)c12 :
## Output No

## Input Call for entry Cc1nn(-c2ccc([N+](=O)[O-])cc2)c2ncnc(N/N=C/c3ccccc3O)c12 :
## Output Yes
